Below, each of the compounds is paired with its reported IC50 value.
- Tested on: RSV B Washington strain
- method.description: Assessment of RSV induced CPE in HEp2 cells (RSV B Washington strain)
- Assay type: cell-based
- measurement.parameters: human respiratory syncytial virus, HEp-2, 144 h; HEp2 cells, 1 MOI, 6 days; read-out: RSV B CPE IC50

>  <smiles>
Cc1cnc(N2CC3(CCOCC3)C2)c(C(=O)Nc2ccc(C(=O)N3CCc4cc(C(=O)Nc5ccc(F)cc5F)sc4-c4ccccc43)cc2)c1

>  <tested.on>
RSV B Washington strain

>  <unit.annotation>
nM

>  <modifier>
=

>  <IC50>
18.4

$$$$
>  <smiles>
Cc1cccc(F)c1NC(=O)c1cc2c(s1)-c1ccccc1N(C(=O)c1ccc(NC(=O)c3cc4c(nc3N3CC5(CCOCC5)C3)CCC4)cc1F)CC2

>  <tested.on>
RSV B Washington strain

>  <unit.annotation>
nM

>  <modifier>
=

>  <IC50>
1.3

$$$$
>  <smiles>
COc1cccc(F)c1NC(=O)c1cc2c(s1)-c1ccccc1N(C(=O)c1ccc(NC(=O)c3cc(C)cnc3N3CC4(CCOCC4)C3)cc1)CC2

>  <tested.on>
RSV B Washington strain

>  <unit.annotation>
nM

>  <modifier>
=

>  <IC50>
14.6

$$$$
>  <smiles>
Cc1cnc(N2CCC3(CC2)COC3)c(C(=O)Nc2ccc(C(=O)N3CCc4cc(C(=O)Nc5c(F)cccc5C(F)(F)F)sc4-c4ccccc43)cc2)c1

>  <tested.on>
RSV B Washington strain

>  <unit.annotation>
nM

>  <modifier>
=

>  <IC50>
811

$$$$
>  <smiles>
Cc1cnc(N2CC3(CCOCC3)C2)c(C(=O)Nc2ccc(C(=O)N3CCc4cc(C(=O)Nc5c(F)cccc5Cl)sc4-c4ccccc43)cc2)c1

>  <tested.on>
RSV B Washington strain

>  <unit.annotation>
nM

>  <modifier>
=

>  <IC50>
17.3

$$$$
>  <smiles>
Cc1cnc(N2CC3(CCOCC3)C2)c(C(=O)Nc2ccc(C(=O)N3CCc4cc(C(=O)Nc5c(C)cccc5CO)sc4-c4ccccc43)cc2)c1

>  <tested.on>
RSV B Washington strain

>  <unit.annotation>
nM

>  <modifier>
=

>  <IC50>
8.6

$$$$
>  <smiles>
COCCOc1cccc(F)c1NC(=O)c1cc2c(s1)-c1ccccc1N(C(=O)c1ccc(NC(=O)c3cc(C)cnc3N3CC4(CCOCC4)C3)cc1)CC2

>  <tested.on>
RSV B Washington strain

>  <unit.annotation>
nM

>  <modifier>
=

>  <IC50>
16.2

$$$$
>  <smiles>
O=C(Nc1ccccc1F)c1cc2c(s1)-c1ccccc1N(C(=O)c1ccc(NC(=O)c3cccnc3N3CC4(CCOCC4)C3)cc1)CC2

>  <tested.on>
RSV B Washington strain

>  <unit.annotation>
nM

>  <modifier>
=

>  <IC50>
20.4

$$$$
>  <smiles>
O=C(Nc1ccccc1Cl)c1cc2c(s1)-c1ccccc1N(C(=O)c1ccc(NC(=O)c3cccnc3N3CC4(CCOCC4)C3)cc1)CC2

>  <tested.on>
RSV B Washington strain

>  <unit.annotation>
nM

>  <modifier>
=

>  <IC50>
142

$$$$
>  <smiles>
C=C(C)c1cnc(N2CC3(CCOCC3)C2)c(C(=O)Nc2ccc(C(=O)N3CCc4cc(C(=O)Nc5c(F)cccc5F)sc4-c4ccccc43)cc2)c1

>  <tested.on>
RSV B Washington strain

>  <unit.annotation>
nM

>  <modifier>
=

>  <IC50>
14.8

$$$$
>  <smiles>
Cc1cnc(N2CCC3(CCOCC3)CC2)c(C(=O)Nc2ccc(C(=O)N3CCc4cc(C(=O)Nc5c(C)cccc5F)sc4-c4ccccc43)cc2)c1

>  <tested.on>
RSV B Washington strain

>  <unit.annotation>
nM

>  <modifier>
>

>  <IC50>
1340

$$$$
>  <smiles>
CCc1ccccc1NC(=O)c1cc2c(s1)-c1ccccc1N(C(=O)c1ccc(NC(=O)c3cccnc3N3CC4(CCOCC4)C3)cc1)CC2

>  <tested.on>
RSV B Washington strain

>  <unit.annotation>
nM

>  <modifier>
=

>  <IC50>
204

$$$$
>  <smiles>
Cc1cnc(N2CC3(CCOCC3)C2)c(C(=O)Nc2ccc(C(=O)N3CCc4cc(C(=O)Nc5c(F)cccc5C(F)(F)F)sc4-c4ccccc43)cc2)c1

>  <tested.on>
RSV B Washington strain

>  <unit.annotation>
nM

>  <modifier>
=

>  <IC50>
1.6

$$$$
>  <smiles>
Cc1cccc(F)c1NC(=O)c1cc2c(s1)-c1ccccc1N(C(=O)c1ccc(NC(=O)c3cc4sccc4nc3N3CC4(CCOCC4)C3)cc1)CC2

>  <tested.on>
RSV B Washington strain

>  <unit.annotation>
nM

>  <modifier>
=

>  <IC50>
19.4

$$$$
>  <smiles>
Cc1cnc(N2CC3(CCOCC3)C2)c(C(=O)Nc2ccc(C(=O)N3CCc4cc(C(=O)Nc5c(F)cccc5C#N)sc4-c4ccccc43)cc2)c1

>  <tested.on>
RSV B Washington strain

>  <unit.annotation>
nM

>  <modifier>
=

>  <IC50>
10.1

$$$$
>  <smiles>
Cc1cccc(F)c1NC(=O)c1cc2c(s1)-c1ccccc1N(C(=O)c1ccc(NC(=O)c3cc4c(nc3N3CC5(CCOCC5)C3)CCCC4)cc1)CC2

>  <tested.on>
RSV B Washington strain

>  <unit.annotation>
nM

>  <modifier>
=

>  <IC50>
1.4

$$$$
>  <smiles>
Cc1cnc(N2CCC3(CC2)COC3)c(C(=O)Nc2ccc(C(=O)N3CCc4cc(C(=O)Nc5c(C)cccc5F)sc4-c4ccccc43)cc2)c1

>  <tested.on>
RSV B Washington strain

>  <unit.annotation>
nM

>  <modifier>
=

>  <IC50>
393

$$$$
>  <smiles>
Cc1cc(C(=O)Nc2ccc(C(=O)N3CCc4cc(C(=O)Nc5ccc(F)cc5F)sc4-c4ccccc43)cc2)c(N2CC3(CCOCC3)C2)nc1C

>  <tested.on>
RSV B Washington strain

>  <unit.annotation>
nM

>  <modifier>
=

>  <IC50>
84

$$$$
>  <smiles>
[2H]c1c([2H])c(C(=O)N2CCc3cc(C(=O)Nc4c(C)cccc4F)sc3-c3ccccc32)c([2H])c([2H])c1NC(=O)c1cc(C)cnc1N1CC2(CCOCC2)C1

>  <tested.on>
RSV B Washington strain

>  <unit.annotation>
nM

>  <modifier>
=

>  <IC50>
1.2

$$$$
>  <smiles>
Cc1ccc(C(=O)Nc2ccc(C(=O)N3CCc4cc(C(=O)Nc5c(C)cccc5F)sc4-c4ccccc43)cc2)c(N2CC3(CCOCC3)C2)n1

>  <tested.on>
RSV B Washington strain

>  <unit.annotation>
nM

>  <modifier>
=

>  <IC50>
41.3

$$$$
>  <smiles>
COc1ccc(C(=O)Nc2ccc(C(=O)N3CCc4cc(C(=O)Nc5ccccc5F)sc4-c4ccccc43)cc2)c(N2CC3(CCOCC3)C2)n1

>  <tested.on>
RSV B Washington strain

>  <unit.annotation>
nM

>  <modifier>
=

>  <IC50>
195

$$$$
>  <smiles>
CCc1cnc(N2CC3(CCOCC3)C2)c(C(=O)Nc2ccc(C(=O)N3CCc4cc(C(=O)Nc5c(C)cccc5F)sc4-c4ccccc43)cc2)c1

>  <tested.on>
RSV B Washington strain

>  <unit.annotation>
nM

>  <modifier>
=

>  <IC50>
9.5

$$$$
>  <smiles>
C#Cc1cnc(N2CC3(CCOCC3)C2)c(C(=O)Nc2ccc(C(=O)N3CCc4cc(C(=O)Nc5c(F)cccc5Cl)sc4-c4ccccc43)cc2)c1

>  <tested.on>
RSV B Washington strain

>  <unit.annotation>
nM

>  <modifier>
=

>  <IC50>
4.8

$$$$
>  <smiles>
O=C(Nc1ccc(F)cc1Cl)c1cc2c(s1)-c1ccccc1N(C(=O)c1ccc(NC(=O)c3cccnc3N3CC4(CCOCC4)C3)cc1)CC2

>  <tested.on>
RSV B Washington strain

>  <unit.annotation>
nM

>  <modifier>
=

>  <IC50>
37.4

$$$$
>  <smiles>
Cc1cnc(N2CC3(CCOCC3)C2)c(C(=O)Nc2ccc(C(=O)N3CCc4cc(C(=O)Nc5c(F)cc(F)cc5F)sc4-c4ccccc43)c(F)c2)c1

>  <tested.on>
RSV B Washington strain

>  <unit.annotation>
nM

>  <modifier>
=

>  <IC50>
13.8

$$$$
>  <smiles>
Cc1cnc(N2CC3(CCOCC3)C2)c(C(=O)Nc2ccc(C(=O)N3CCc4cc(C(=O)Nc5c(Cl)cccc5Cl)sc4-c4ccccc43)cc2)c1

>  <tested.on>
RSV B Washington strain

>  <unit.annotation>
nM

>  <modifier>
=

>  <IC50>
1.4

$$$$

###

Attribute: IC50
- System: RSV A2 F-protein expression in BEAS2B bronchial epithelial cells
- method.description: Assessment of RSV F protein expression in BEAS2B bronchial epithelial cells
- Format: cell-based
- measurement.parameters: human respiratory syncytial virus, BEAS-2B, 72 h, read-out: RSV A2 F-protein IC50 (nM)

>  <compound>
Cc1cccc(F)c1NC(=O)c1cc2c(s1)-c1ccccc1N(C(=O)c1ccc(NC(=O)c3cc4c(nc3N3CC5(CCOCC5)C3)CCC4)cc1)CC2 [Example 8]

>  <unit.annotation>
nM

>  <IC50>
0.13

$$$$
>  <compound>
Cc1cccc(F)c1NC(=O)c1cc2c(s1)-c1ccccc1N(C(=O)c1ccc(NC(=O)c3cc4ccccc4nc3N3CC4(CCOCC4)C3)cc1)CC2 [Example 10]

>  <unit.annotation>
nM

>  <IC50>
0.48

$$$$
>  <compound>
O=C(Nc1c(F)cccc1Cl)c1cc2c(s1)-c1ccccc1N(C(=O)c1ccc(NC(=O)c3cc4c(nc3N3CC5(CCOCC5)C3)CCC4)cc1)CC2 [Example 76]

>  <unit.annotation>
nM

>  <IC50>
0.32

$$$$
